Here, each record is paired with measured relative bond affinity (RBA) data.
Target: opiate receptor μ (Rattus norvegicus, UniProt P33535)
Construct: prepared from brains of rats; from tissue; host or cells: rat brain membranes
Sequence (P33535 whole entry): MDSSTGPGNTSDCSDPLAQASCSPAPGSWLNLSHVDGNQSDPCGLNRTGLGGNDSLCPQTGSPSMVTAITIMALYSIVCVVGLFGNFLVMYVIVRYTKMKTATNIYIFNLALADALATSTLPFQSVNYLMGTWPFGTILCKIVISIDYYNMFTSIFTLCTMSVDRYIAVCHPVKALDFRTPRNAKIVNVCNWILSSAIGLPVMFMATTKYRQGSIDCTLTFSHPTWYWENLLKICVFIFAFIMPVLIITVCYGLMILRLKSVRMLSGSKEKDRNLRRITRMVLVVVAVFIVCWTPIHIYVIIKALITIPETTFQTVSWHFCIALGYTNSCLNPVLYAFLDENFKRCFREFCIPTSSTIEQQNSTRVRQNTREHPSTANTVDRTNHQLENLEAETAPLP
Test: Bond to the opiate receptor μ in vitro (displacement of 3H dihydromorphine, rat brain membranes)
Assay type: binding, rats
Conditions: relative to morphine=100
Kindly provide the number alone.

Cl.O=C1Cc2c(cccc2C2=CCN(CCc3ccccc3)CC2)N1
8.2
C=CCOc1ccccc1OCC(O)CN1CC=C(c2cccc3[nH]ccc23)CC1 (stereo not drawn)
22.43
COC1(c2cccc3[nH]ccc23)CCNCC1
13
Cl.O=C1Cc2c(cccc2C2=CCN(CCCC(=O)c3ccc(F)cc3)CC2)N1
62
Cl.O=C1Cc2c(cccc2C2=CCN(CCOc3ccccc3)CC2)N1
23

Continue with the next molecule.
Fill in the blank: the reported relative bond affinity (RBA) of C=CCOc1ccccc1OCC(O)CN1CC=C(c2cccc3c2CC(=O)N3)CC1 (stereo not drawn) is ____.
270

----------
Target: opiate receptor K (Cavia porcellus)
Sequence (P41144 whole entry): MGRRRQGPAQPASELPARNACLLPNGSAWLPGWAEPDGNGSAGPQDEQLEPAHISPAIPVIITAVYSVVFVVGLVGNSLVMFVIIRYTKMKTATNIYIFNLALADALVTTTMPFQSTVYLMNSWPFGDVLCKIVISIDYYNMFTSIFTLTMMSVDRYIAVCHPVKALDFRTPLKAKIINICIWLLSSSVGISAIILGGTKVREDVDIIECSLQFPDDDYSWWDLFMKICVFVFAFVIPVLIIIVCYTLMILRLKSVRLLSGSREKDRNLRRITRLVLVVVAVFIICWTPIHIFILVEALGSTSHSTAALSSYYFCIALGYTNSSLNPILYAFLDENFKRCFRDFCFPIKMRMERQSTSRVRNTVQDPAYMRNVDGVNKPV
Here, each record is paired with measured pIC50 data.
Please report pIC50 as the negative decimal logarithm of the molar concentration, giving only the number.

Example entries and their recorded answers appear below.
CCCN1CC=C(c2cccc3[nH]ccc23)CC1
6.74
Cl.O=C1Cc2c(cccc2C2=CCN(CCCC(=O)c3ccc(F)cc3)CC2)N1 [Example 32, hydrochloride]
6.34

Continue with the next compound.
Fill in the blank: the reported pIC50 of Cl.O=C1Cc2c(cccc2C2=CCN(CCOc3ccccc3)CC2)N1 [Example 29, hydrochloride] is ____.
6.82

----------
Reported IC50 values, UniProt:P33535.
Lab book: enter the figure in nM, no units written.

Example entries and their recorded answers appear below.
Cl.O=C1Cc2c(cccc2C2=CCN(CCCC(=O)c3ccc(F)cc3)CC2)N1 [Example 32, hydrochloride]
3.5
COC1(c2cccc3[nH]ccc23)CCNCC1
28
C=CCOc1ccccc1OCC(O)CN1CC=C(c2cccc3[nH]ccc23)CC1 (stereo not drawn)
9.43

Give recorded IC50 with UniProt:P33535 for the following molecule: C=CCOc1ccccc1OCC(O)CN1CC=C(c2cccc3c2CC(=O)N3)CC1 (stereo not drawn)
1.4

Give recorded IC50 with UniProt:P33535 for the following molecule: Cl.O=C1Cc2c(cccc2C2=CCN(CCOc3ccccc3)CC2)N1 [Example 29, hydrochloride]
11

Give recorded IC50 with UniProt:P33535 for the following molecule: Cl.O=C1Cc2c(cccc2C2=CCN(CCc3ccccc3)CC2)N1 [Example 26, hydrochloride]
59
